# METHOD_NOTES: Mouse blood and tissue PK (LC/MS-MS)
# Assay type: in vivo
# MEASUREMENT_SETUP: mouse, whole blood, po, 25 mg/kg, NCI-H441 #1 (25 mg/kg), QD x 28 days; read-out: Blood AUClast
METRIC: AUC(0-t) (ng·h/mL)
Entry rule: numbers only, all in ng·h/mL.

The measured AUC(0-t) associated with CCn1c(-c2cc(N3CCN(C)CC3)cnc2[C@H](C)OC)c2c3cc(ccc31)-c1csc(n1)C[C@H](NC(=O)[C@H]1C[C@@H]1C)C(=O)N1CCC[C@H](N1)C(=O)OCC(C)(C)C2 [RMC-6236] reads 6950

###

# METHOD_NOTES: Mouse blood and tissue PK (LC/MS-MS)
# Format: in vivo
# MEASUREMENT_SETUP: mouse, whole blood, po, 25 mg/kg, NCI-H441 (25 mg/kg), single dose; read-out: Blood t1/2 (converted)
METRIC: half-life (h)
Entry rule: numbers only, all in h.

The measured half-life associated with CCn1c(-c2cc(N3CCN(C)CC3)cnc2[C@H](C)OC)c2c3cc(ccc31)-c1csc(n1)C[C@H](NC(=O)[C@H]1C[C@@H]1C)C(=O)N1CCC[C@H](N1)C(=O)OCC(C)(C)C2 reads 3.11

###

# METHOD_NOTES: Mouse blood and tissue PK (LC/MS-MS)
# Format: in vivo
# MEASUREMENT_SETUP: mouse, tumor, oral, 50 mg/kg, Model Validation Dataset; 50mg/kg_study6; 1 h; read-out: Tumor Concentration
METRIC: concentration at 1 h

The measured concentration at 1 h associated with CCn1c(-c2cc(N3CCN(C)CC3)cnc2[C@H](C)OC)c2c3cc(ccc31)-c1csc(n1)C[C@H](NC(=O)[C@H]1C[C@@H]1C)C(=O)N1CCC[C@H](N1)C(=O)OCC(C)(C)C2 reads 1310 nM

###

# METHOD_NOTES: Mouse blood and tissue PK (LC/MS-MS)
# Format: in vivo
# MEASUREMENT_SETUP: mouse, tumor relative to whole blood, oral, various xenograft tumors; read-out: exposure in xenograft tumors relative to blood
METRIC: Kp

The measured Kp associated with CCn1c(-c2cc(N3CCN(C)CC3)cnc2[C@H](C)OC)c2c3cc(ccc31)-c1csc(n1)C[C@H](NC(=O)[C@H]1C[C@@H]1C)C(=O)N1CCC[C@H](N1)C(=O)OCC(C)(C)C2 reads 3 to 7

###

# METHOD_NOTES: Mouse blood and tissue PK (LC/MS-MS)
# Format: in vivo
# MEASUREMENT_SETUP: mouse, tumor, oral, 3 mg/kg, HPAC #4; 3 mg/kg, 48h; individual animals; read-out: RMC-6236 (nM) Tumor
METRIC: concentration at 48 h (nM)
Entry rule: numbers only, all in nM.

The measured concentration at 48 h associated with CCn1c(-c2cc(N3CCN(C)CC3)cnc2[C@H](C)OC)c2c3cc(ccc31)-c1csc(n1)C[C@H](NC(=O)[C@H]1C[C@@H]1C)C(=O)N1CCC[C@H](N1)C(=O)OCC(C)(C)C2 reads 31.9

###

# METHOD_NOTES: Mouse blood and tissue PK (LC/MS-MS)
# Format: in vivo
# MEASUREMENT_SETUP: BALB/c nude, mouse, tumor, oral, 3 mg/kg, Capan-2, study Capan-2 #3_PHA 2023, 3 mg/kg, 8h; read-out: RMC-6236 (nM) Tumor
METRIC: concentration at 8 h (nM)
Entry rule: numbers only, all in nM.

The measured concentration at 8 h associated with CCn1c(-c2cc(N3CCN(C)CC3)cnc2[C@H](C)OC)c2c3cc(ccc31)-c1csc(n1)C[C@H](NC(=O)[C@H]1C[C@@H]1C)C(=O)N1CCC[C@H](N1)C(=O)OCC(C)(C)C2 reads 231

###

# METHOD_NOTES: Mouse blood and tissue PK (LC/MS-MS)
# Format: in vivo
# MEASUREMENT_SETUP: BALB/c nude, mouse, tumor, oral, 10 mg/kg, Capan-2, study Capan-2 #3_PHA 2020, 10 mg/kg, 2h; read-out: RMC-6236 (nM) Tumor
METRIC: concentration at 2 h (nM)
Entry rule: numbers only, all in nM.

The measured concentration at 2 h associated with CCn1c(-c2cc(N3CCN(C)CC3)cnc2[C@H](C)OC)c2c3cc(ccc31)-c1csc(n1)C[C@H](NC(=O)[C@H]1C[C@@H]1C)C(=O)N1CCC[C@H](N1)C(=O)OCC(C)(C)C2 reads 671
